Reference source for all entries: patent US7601686B2

molecular target: HCV NS3/4A protease complex, H77 strain (Hepatitis C virus genotype 1a, UniProt P27958, C1454S/C1711G); construct: recombinant HCV NS3/4A protease complex (amino acids 1027 to 1711) for these strains; inferred from pET21b vector and Ni-NTA purification; experiment: FRET peptide assay to monitor HCV NS3/4A proteolytic activity (H77 strain)
Sequence (P27958 1027-1711 C1454S/C1711G, one chain of several): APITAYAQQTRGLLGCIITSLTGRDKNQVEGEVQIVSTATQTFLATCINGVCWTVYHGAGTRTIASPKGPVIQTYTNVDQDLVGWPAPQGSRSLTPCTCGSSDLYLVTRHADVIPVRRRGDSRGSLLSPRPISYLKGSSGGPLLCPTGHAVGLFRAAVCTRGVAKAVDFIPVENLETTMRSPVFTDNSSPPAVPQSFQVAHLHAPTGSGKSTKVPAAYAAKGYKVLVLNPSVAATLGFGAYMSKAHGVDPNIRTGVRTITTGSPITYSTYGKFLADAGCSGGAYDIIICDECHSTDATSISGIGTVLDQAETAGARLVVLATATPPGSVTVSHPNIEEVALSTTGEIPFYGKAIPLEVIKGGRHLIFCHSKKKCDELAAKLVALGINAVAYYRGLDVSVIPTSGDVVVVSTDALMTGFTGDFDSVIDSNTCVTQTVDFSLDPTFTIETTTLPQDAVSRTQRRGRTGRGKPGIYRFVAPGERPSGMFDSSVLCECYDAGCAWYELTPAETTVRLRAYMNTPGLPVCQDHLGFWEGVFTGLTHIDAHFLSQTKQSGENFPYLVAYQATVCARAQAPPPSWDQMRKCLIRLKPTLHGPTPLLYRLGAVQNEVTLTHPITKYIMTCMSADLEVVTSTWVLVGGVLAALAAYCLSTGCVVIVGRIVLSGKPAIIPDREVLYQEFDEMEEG
MEASUREMENT_NAME: IC50 (nM)
Numbers only, in nM.

Reported IC50 for C=CC1CC1(NC(=O)[C@@H]1C[C@@H](NC(=O)c2cc(-c3ccccc3)nc3ccccc23)CN1C(=O)[C@@H](NC(=O)CC1CC1)C(C)(C)C)C(=O)NS(=O)(=O)C1CC1 (stereo partly shown) was 41

====

molecular target: HCV NS3/4A protease complex, BMS strain (UniProt P27958, species not given/STRAIN_BMS); construct: DNA encoding the recombinant HCV NS3/4A protease complex (amino acids 1027 to 1711) for these strains [H77 and J4L6S]; fused on or other part: For the H77 and J4L6S constructs, a three-lysine solubilising tail at the NS4A C-terminus and a Ni-NTA-purifiable tag from pET21b; assay: FRET peptide assay to monitor HCV NS3/4A proteolytic activity (BMS strain); format: biochemical, Hepatitis C virus (genotype 1a); conditions: NS3/4A BMS strain, enzyme assay; read-out: IC 50 Range
Sequence (P27958 1027-1657, stated change not applied, one chain of several): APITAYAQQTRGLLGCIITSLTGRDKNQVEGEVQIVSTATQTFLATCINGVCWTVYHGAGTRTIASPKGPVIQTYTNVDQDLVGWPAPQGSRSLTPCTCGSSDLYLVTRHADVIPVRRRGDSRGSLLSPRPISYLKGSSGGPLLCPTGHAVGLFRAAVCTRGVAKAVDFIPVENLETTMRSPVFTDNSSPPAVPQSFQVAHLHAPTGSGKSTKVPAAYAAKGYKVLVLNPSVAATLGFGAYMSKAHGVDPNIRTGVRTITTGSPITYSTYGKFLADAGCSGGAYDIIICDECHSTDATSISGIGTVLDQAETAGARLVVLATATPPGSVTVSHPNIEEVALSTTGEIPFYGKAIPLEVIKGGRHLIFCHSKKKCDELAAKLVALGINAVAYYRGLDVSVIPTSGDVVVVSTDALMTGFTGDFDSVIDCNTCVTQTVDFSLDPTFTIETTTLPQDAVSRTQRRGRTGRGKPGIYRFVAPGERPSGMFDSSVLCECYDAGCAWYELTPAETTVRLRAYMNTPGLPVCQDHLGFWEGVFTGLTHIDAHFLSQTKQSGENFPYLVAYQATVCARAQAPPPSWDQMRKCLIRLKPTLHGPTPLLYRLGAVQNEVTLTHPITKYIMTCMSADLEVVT
So I've got a bunch of compounds here, and I need their IC50 values.

Below is a list of compounds. For each, state its recorded IC50.
1. C=CC1CC1(NC(=O)[C@@H]1C[C@@H](NC(=O)c2cccc3c2OCC3)CN1C(=O)[C@@H](NC(=O)CC1CC1)C(C)(C)C)C(=O)NS(=O)(=O)C1CC1 (stereo partly drawn) [Compound 30]
2. C=CC1CC1(NC(=O)[C@@H]1C[C@@H](NC(=O)c2ccncc2)CN1C(=O)[C@@H](NC(=O)CC1CC1)C(C)(C)C)C(=O)NS(=O)(=O)C1CC1 (stereo partly drawn) [Compound 15]
3. C=CC1CC1(NC(=O)[C@@H]1C[C@@H](NC(=O)c2sc3ccccc3c2Cl)CN1C(=O)[C@@H](NC(=O)CC1CC1)C(C)(C)C)C(=O)NS(=O)(=O)C1CC1 (stereo partly drawn) [Compound 29]
4. C=CC1CC1(NC(=O)[C@@H]1C[C@@H](NC(=O)c2sc3ccccc3c2Cl)CN1C(=O)[C@@H](NC(=O)CC1CC1)C(C)(C)C)C(=O)O (single isomer, unassigned) [Compound 2]

# output
["150 to 15000 nM", "150 to 15000 nM", "< 150 nM", "> 15000 nM"]

====

target: HCV NS3/4A protease complex, BMS strain (UniProt P27958, species not given/STRAIN_BMS); construct: DNA encoding the recombinant HCV NS3/4A protease complex (amino acids 1027 to 1711) for these strains [H77 and J4L6S]; fused on or other part: For the H77 and J4L6S constructs, a three-lysine solubilising tail at the NS4A C-terminus and a Ni-NTA-purifiable tag from pET21b; experiment: FRET peptide assay to monitor HCV NS3/4A proteolytic activity (BMS strain); format: biochemical, Hepatitis C virus (genotype 1a); settings: NS3/4A BMS strain, enzyme assay; read-out: IC 50 Range
pIC50: −log10 of the molar value.
So I've got a bunch of compounds here, and I need their pIC50 values.

C=CC1CC1(NC(=O)[C@@H]1C[C@@H](NC(=O)c2cccc3ccccc23)CN1C(=O)[C@@H](NC(=O)CC1CC1)C(C)(C)C)C(=O)NS(=O)(=O)C1CC1 (some centres unmarked)
> 6.82
C=CC1CC1(NC(=O)[C@@H]1C[C@@H](NC(=O)c2ccnc3ccccc23)CN1C(=O)[C@@H](NC(=O)CC1CC1)C(C)(C)C)C(=O)NS(=O)(=O)C1CC1 (some centres unmarked) [Compound 10]
4.82 to 6.82
C=CC1CC1(NC(=O)[C@@H]1C[C@@H](NC(=O)c2ccccc2-c2ccccc2)CN1C(=O)[C@@H](NC(=O)CC1CC1)C(C)(C)C)C(=O)NS(=O)(=O)C1CC1 (some centres unmarked)
4.82 to 6.82

Below is a list of compounds. For each, state its recorded pIC50.
1. C=CC1CC1(NC(=O)[C@@H]1C[C@@H](NC(=O)c2cc3ccccc3o2)CN1C(=O)[C@@H](NC(=O)CC1CC1)C(C)(C)C)C(=O)NS(=O)(=O)C1CC1 (some centres unmarked)
2. C=CC1CC1(NC(=O)[C@@H]1C[C@@H](NC(=O)c2ccnc3ccccc23)CN1C(=O)[C@@H](NC(=O)CC1CC1)C(C)(C)C)C(=O)NS(=O)(=O)C1CC1 (some centres unmarked) [Compound 11]

# output
1. > 6.82
2. 4.82 to 6.82
